# tested-system: PKB (Homo sapiens)
# Construct: His; HA; made in house
# Sequence (P31749 whole entry, species assumed): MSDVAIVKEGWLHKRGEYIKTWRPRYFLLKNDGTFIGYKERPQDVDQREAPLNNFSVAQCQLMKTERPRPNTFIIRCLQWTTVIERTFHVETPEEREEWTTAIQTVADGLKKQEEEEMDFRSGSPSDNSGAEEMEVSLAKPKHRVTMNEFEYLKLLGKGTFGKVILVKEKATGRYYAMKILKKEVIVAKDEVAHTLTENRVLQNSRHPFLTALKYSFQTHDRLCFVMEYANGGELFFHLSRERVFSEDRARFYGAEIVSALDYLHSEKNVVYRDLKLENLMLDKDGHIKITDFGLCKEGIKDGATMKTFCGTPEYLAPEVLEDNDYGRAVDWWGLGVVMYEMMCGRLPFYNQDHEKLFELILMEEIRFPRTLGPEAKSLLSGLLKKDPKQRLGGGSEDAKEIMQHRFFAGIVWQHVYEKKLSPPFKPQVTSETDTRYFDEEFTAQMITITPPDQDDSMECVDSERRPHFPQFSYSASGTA
# assay-details: PKB in vitro kinase activity assay (soluble His-HA-PKB / SPA bead screening)
# Assay type: biochemical
# conditions-used: 1 μM compound concentration, Assay 2
Where no end group is shown, it is not given here. Side-chain parts run from the residue outwards. [ ]: non-standard residue; d: D form. The star is where a group is joined. X1 = 5‑aminoethylsulfonamide isoquinoline, O=S(=O)(NCCN*)c1cccc2cnccc12; hLeu = CC(C)CC[C@H](N)C(=O)O; Nle = CCCC[C@H](N)C(=O)O; Orn = NCCC[C@H](N)C(=O)O; Dab = NCC[C@H](N)C(=O)O; Nva = CCC[C@H](N)C(=O)O; Abu = CC[C@H](N)C(=O)O; Dap = NC[C@H](N)C(=O)O; βAla = NCCC(=O)O
metric: PKB-kinase (spa) Assay 2, % inhibition of kinase activity (%)

Below: 4 substances and their reported PKB-kinase (spa) Assay 2, % inhibition of kinase activity.
[
  {
    "substance": "60020-82: Arg-Pro-Arg-Abu-Glu(bAla-5-aminoethylsulfonamide isoquinoline)-Dab-Hol (RPR[Abu]E([βAla-X1])[Dab][hLeu])",
    "unit-spec": "%",
    "reported-result": 56
  },
  {
    "substance": "60020-93: Arg-Pro-Arg-Nle-Glu(bAla-5-aminoethylsulfonamide isoquinoline)-Ala-Phe (RPR[Nle]E([βAla-X1])AF)",
    "unit-spec": "%",
    "reported-result": 58
  },
  {
    "substance": "60020-66: Arg-Pro-Arg-Dap-Glu(bAla-5-aminoethylsulfonamide isoquinoline)-Dab-Hol (RPR[Dap]E([βAla-X1])[Dab][hLeu])",
    "unit-spec": "%",
    "reported-result": 63
  },
  {
    "substance": "60020-48: Arg-Pro-Arg-Orn-Glu(Gly-5-aminoethylsulfonamide isoquinoline)-Nva-Hol (RPR[Orn]E([Gly-X1])[Nva][hLeu])",
    "unit-spec": "%",
    "reported-result": 22
  }
]

(I) 60020-64: Arg-Pro-Arg-Nle-Glu(Gly-5-aminoethylsulfonamide isoquinoline)-Nva-Hol (RPR[Nle]E([Gly-X1])[Nva][hLeu])
(II) 60020-43: Arg-Pro-Arg-Orn-Glu(Gly-5-aminoethylsulfonamide isoquinoline)-Orn-Phe (RPR[Orn]E([Gly-X1])[Orn]F)
Request: Given the listed records, identify the one among I and II with higher PKB-kinase (spa) Assay 2, % inhibition of kinase activity. Your choice should be expressed through its label.
Response: II
